EC50 by entry:
- experimental target: T1, human Nectin-4 extracellular antigen hNectin-4-His (human, UniProt Q96NY8 32-349)
- T1 construct: C-terminal 8xHis tag included
- T1 sequence: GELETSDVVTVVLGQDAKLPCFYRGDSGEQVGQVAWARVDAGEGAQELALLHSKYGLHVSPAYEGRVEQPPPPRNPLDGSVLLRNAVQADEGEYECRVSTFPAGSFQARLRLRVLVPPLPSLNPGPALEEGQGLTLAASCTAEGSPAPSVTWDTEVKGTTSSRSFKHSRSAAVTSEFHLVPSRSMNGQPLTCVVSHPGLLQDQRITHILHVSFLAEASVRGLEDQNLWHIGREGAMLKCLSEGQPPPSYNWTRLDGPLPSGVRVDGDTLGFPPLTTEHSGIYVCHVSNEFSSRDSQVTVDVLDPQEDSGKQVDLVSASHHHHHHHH
- test: ELISA, coated hNectin-4-His
# value in ng/mL; strip the unit string

antibody 1F3-1G11 (antibody, human IgG1, kappa, V domains shown) VH: EVQLVESGGGLVQPGGSLRLSCAASGYSFTGYGMSWVRQAPGKGLEWVSGISPSGGTIGYADSVKGRFTISRDNSKNTLYLQMNSLRAEDTAVYYCARAELLAFDVYTASDYWGQGTLVTVSS VL: DIQMTQSPSSLSASVGDRVTITCRASQGISSYLAWYQQKPGKAPKLLIYAASSLQSGVPSRFSGSGSGTDFTLTISSLQPEDFATYYCQQHYTTPPTFGQGTKVEIKR = 7

Let us move to another entry and its EC50.
Per the records, this binder ( antibody 1F3-1F4 (antibody, human IgG1, kappa, V domains shown) VH: EVQLVESGGGLVQPGGSLRLSCAASGDIFTGSSMSWVRQAPGKGLEWVSGIYASGSDKRYADSVKGRFTISRDNSKNTLYLQMNSLRAEDTAVYYCARAELLAFDVYTASDYWGQGTLVTVSS VL: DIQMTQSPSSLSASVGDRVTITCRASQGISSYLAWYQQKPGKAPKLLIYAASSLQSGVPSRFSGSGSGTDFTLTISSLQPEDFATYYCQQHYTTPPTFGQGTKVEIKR ) has EC50 equal to 9
